B1: NELF-E aptamer (parent)
chain: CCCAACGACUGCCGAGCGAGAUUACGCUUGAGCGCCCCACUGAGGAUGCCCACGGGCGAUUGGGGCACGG

variants of: B1; experiment: HiTS-RAP; conditions: with NELF-E (Drosophila)
Endpoint: pKd
Numbers only, as −log10 of the molar value.

Example results:
Mutation Label | Endpoint | Measured Number
C9G C12G | pKd | 8.24
C13G A59U | pKd | 7.38
G7A A19U | pKd | 8.07
A5G A15G | pKd | 8.17
G7U G16U | pKd | 8.15
U41C G54A | pKd | 6.99
G16U A19G | pKd | 8.16
G20U G54A | pKd | 7.70
A24G U61C | pKd | 7.12
U28C G34A | pKd | 7.42

Moving on to the next variant.
Fill in: pKd of U29G A46G is ___
7.65
